// TGI lookup, one value per entry
test system: KM20L2 colon; assay: NCI tumour cell line growth inhibition, 48 h

[
  {
    "MOLECULE": "CC(=O)OC(=O)O/C=C\\CCl",
    "TGI": "> 100 µM"
  },
  {
    "MOLECULE": "CC(=O)Nc1ccc(-c2nnc(SCC(=O)Nc3ccc(Cl)cc3)o2)cc1",
    "TGI": "33.3 µM"
  },
  {
    "MOLECULE": "COc1ccc2c(c1)c1c3n2CCNN=C3CCC1",
    "TGI": "> 100 µM"
  },
  {
    "MOLECULE": "COc1ccc(C)cc1C1CCC(=O)O1 (stereo unspecified)",
    "TGI": "> 100 µM"
  },
  {
    "MOLECULE": "Cn1nc(-c2ccccc2)c(C(=O)/C=C/c2ccc(Cl)cc2)c(N2CCCC2)c1=O",
    "TGI": "15.1 µM"
  },
  {
    "MOLECULE": "CCOC(=O)C1=C(C)N(C2OC(COC(=O)c3ccccc3)C(OC(=O)c3ccccc3)C2OC(=O)c2ccccc2)C(=S)NC1c1ccccc1 (stereo unspecified)",
    "TGI": "> 100 µM"
  },
  {
    "MOLECULE": "Cc1ccc(/C=N/NS(=O)(=O)c2ccccc2)c(C)c1",
    "TGI": "> 100 µM"
  },
  {
    "MOLECULE": "O=C1C=Cc2ncccc2C1=O",
    "TGI": "> 63.2 µM"
  },
  {
    "MOLECULE": "Cc1c2ccncc2c(C)c2c1[nH]c1ccc(Cl)cc12",
    "TGI": "9.55 µM"
  },
  {
    "MOLECULE": "COc1cc(C(C#N)NNc2nc(C)cc(=O)[nH]2)cc(OC)c1OC (stereo unspecified)",
    "TGI": "> 100 µM"
  },
  {
    "MOLECULE": "CCOC(C)OC1CC(n2cc(C)c(=O)[nH]c2=O)OC1CO (stereo unspecified)",
    "TGI": "> 100 µM"
  }
]
